Data provenance: patent US20080076762A1

- target_system: plasmepsin IV (Plasmodium falciparum, UniProt Q8IM16)
- Sequence (Q8IM16 122-449): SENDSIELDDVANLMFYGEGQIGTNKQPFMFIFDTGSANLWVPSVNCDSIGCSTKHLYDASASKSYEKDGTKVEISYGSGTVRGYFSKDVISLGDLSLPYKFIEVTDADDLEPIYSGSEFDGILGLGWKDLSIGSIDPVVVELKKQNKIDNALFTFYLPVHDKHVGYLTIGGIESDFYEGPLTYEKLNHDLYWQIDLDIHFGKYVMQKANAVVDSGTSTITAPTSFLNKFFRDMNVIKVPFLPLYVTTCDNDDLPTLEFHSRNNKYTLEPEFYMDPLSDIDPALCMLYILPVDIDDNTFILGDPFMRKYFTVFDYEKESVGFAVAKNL
- method: FRET assay for plasmepsin IV
- Format: biochemical
- stated_conditions: pH 5, 37° C., substrate M-2120 1 μM
Note to self: IC50 under 60 nM means 1 (yes), ties and anything higher get 0 (no).

1) CCCCCc1ccc(C(=O)N(Cc2ccc(C(=O)NCc3c(F)cccc3F)cc2)C2CCN(CCC(C)C)CC2)nc1: 0 (no)
2) CCCCCc1ccc(C(=O)N(Cc2ccc(N3CCSCC3)nc2)C2CCN(CCC(C)C)CC2)nc1: 0 (no)
3) CCCCCc1ccc(C(=O)N(Cc2ccc(-c3ccc(Cl)c(Cl)c3)o2)C2CCN(CCC(C)C)CC2)cc1: 1 (yes)
4) CCCCCc1ccc(C(=O)N(Cc2ccc(-c3ccc(C(=O)N4CCCCC4)cc3)cc2)C2CCN(CCC(C)C)CC2)nc1: 0 (no)
5) CCCCCc1ccc(C(=O)N(Cc2ccc(-c3cccc(C)c3)cc2)C2CCN(CCC(C)C)CC2)nc1: 1 (yes)
